Assay: NCI Yeast Anticancer Drug Screen. Data for the mlh1 rad18 strain (AID 175)
Conditions: S. cerevisiae mlh1 rad18 strain growth inhibition; at 50.0 µM (retest, dose inferred, filed as 5.0); hits give high values
This is part of a sample that, as a whole, favours compounds with a hit. Of some 79,000 tested, about 15% had one in any assay.
Use 90% as the dividing line for growth inhibition, with the line itself on the yes side and lower values as no.

1. Cc1ccc(NC(=S)SCc2ccc(Cl)cc2)cc1C: no
2. OC1(c2ccccc2)CCN(c2c3ccccc3nc3ccccc23)CC1: no
3. COC(=O)n1c(C[P+](c2ccccc2)(c2ccccc2)c2ccccc2)cc2ccccc21: yes
4. O=C(/C=N/O)c1c(-c2ccccc2)[nH]c(-c2ccccc2)c1-c1ccccc1: yes
5. C/C=C/C/C=C/CCC(=O)C1OC1C(N)=O (stereo unspecified): yes
6. CCOC(=O)CC(O)(CCc1ccccc1)c1ccccc1 (stereo unspecified): no
7. CCCC12C=C(OC)C(=O)C=C1OC(c1ccc3c(c1)OCO3)C2C (stereo unspecified): no
8. CCCCCCCCCCCCCCCCCCOC(=O)C(N)CCCCN (stereo unspecified): yes

Q: Decide: is the reported value of growth inhibition for COP(=O)(OC)OCC1OC(n2cnc3c(N)ncnc32)C(O)C1O (stereo unspecified) equal to or greater than 90%?
A: no

Q: Next: `N#CSCC(=O)c1ccc2ccccc2c1`
A: yes

Q: Next: `Cc1ccc(S(=O)(=O)NCCCOS(=O)(=O)c2ccc(C)cc2)cc1`
A: no
